- Tested on: FaDu
- assay.info: Antiproliferative activity against human FaDu cells assessed as cell growth inhibition incubated for 72 hrs by CCK-8 assay
- Assay type: functional, cell-based
- assay.context: read-out: IC50
experimental.readout: log10(IC50) (log10 of the value in nM)
All values: base-10 log of IC50 in nM.

Request: Could you tell me which log10(IC50) is on file for C=CCNC(=O)Nc1nc2ccc(CCCC)cc2[nH]1 ?
Response: 2.45

Request: Could you tell me which log10(IC50) is on file for CCCCCc1ccc2nc(NC(=O)OC(C)C)[nH]c2c1 ?
Response: 2.36

Request: Could you tell me which log10(IC50) is on file for CCCCc1ccc2nc(NC(=O)OC(C)C)[nH]c2c1 ?
Response: 2.10

Request: Could you tell me which log10(IC50) is on file for CCCCc1ccc2nc(NC(=O)OC(C)CC)[nH]c2c1 (stereo not given) ?
Response: 2.19

Request: Could you tell me which log10(IC50) is on file for CCCCc1ccc2nc(NC(=O)NCCc3ccccc3)[nH]c2c1 ?
Response: 2.89

Request: Could you tell me which log10(IC50) is on file for CC[C@]1(O)C[C@@H]2CN(CCc3c([nH]c4ccccc34)[C@@](C(=O)OC)(c3cc4c(cc3OC)N(C)[C@H]3[C@@](O)(C(=O)OC)[C@H](OC(C)=O)[C@]5(CC)C=CCN6CC[C@]43[C@@H]65)C2)C1 ?
Response: 0.65

Request: Could you tell me which log10(IC50) is on file for CCCCc1ccc2[nH]c(NC(=O)OC)nc2c1 ?
Response: 2.20

Request: Could you tell me which log10(IC50) is on file for C=CCOC(=O)Nc1nc2ccc(CCCC)cc2[nH]1 ?
Response: 2.10

Request: Could you tell me which log10(IC50) is on file for COc1ccc(/C=C\c2cc(OC)c(OC)c(OC)c2)cc1O ?
Response: 0.70

Request: Could you tell me which log10(IC50) is on file for CCCCc1ccc2nc(NC(=O)OCCC)[nH]c2c1 ?
Response: 2.45

* * *

- assay.info: AUC (0 to t) in rat at 100 mg/kg,IG measured upto 24 hrs by HPLC analysis
- Format: ADME, organism-based
- Parameters: dose 100 mg/kg, time < 24 hrs, route ig
- assay.context: in vivo, po
For each record, write down the corresponding AUC(0-t) at 24 h.
Note: unit ng·h/mL is implicit; provide only the numeric part.

Request: Could you tell me which AUC(0-t) at 24 h is on file for CCCCc1ccc2[nH]c(NC(=O)OC)nc2c1 [PARBENDAZOLE] ?
Response: 403

Request: Could you tell me which AUC(0-t) at 24 h is on file for C=CCOC(=O)Nc1nc2ccc(CCCC)cc2[nH]1 ?
Response: 386

Request: Could you tell me which AUC(0-t) at 24 h is on file for CCCCc1ccc2nc(NC(=O)OC(C)C)[nH]c2c1 ?
Response: 542

* * *

- study.system: Tubulin
- assay.info: Inhibition of tubulin polymerization (unknown origin) by fluorescence based analysis
For each record, write down the corresponding IC50.
Note: unit µM is implicit; provide only the numeric part.

Request: Could you tell me which IC50 is on file for CCCCCc1ccc2nc(NC(=O)OC(C)C)[nH]c2c1 ?
Response: 6.81

Request: Could you tell me which IC50 is on file for CCCCc1ccc2nc(NC(=O)OCCC)[nH]c2c1 ?
Response: 5.34

Request: Could you tell me which IC50 is on file for C=CCOC(=O)Nc1nc2ccc(CCCC)cc2[nH]1 ?
Response: 4.41

Request: Could you tell me which IC50 is on file for Cc1cc2nc(NC(=O)OC(C)C)[nH]c2cc1C ?
Response: 5.08

* * *

- assay.info: Half life in rat at 100 mg/kg,IG measured upto 24 hrs by HPLC analysis
- Type: ADME, organism-based
- assay.context: in vivo, po
experimental.readout: half-life
Please answer using a numeric value trailed by its unit.

Request: Could you tell me which half-life is on file for C=CCOC(=O)Nc1nc2ccc(CCCC)cc2[nH]1 ?
Response: 2.19 h

Request: Could you tell me which half-life is on file for CCCCc1ccc2[nH]c(NC(=O)OC)nc2c1 ?
Response: 2.16 h

Request: Could you tell me which half-life is on file for CCCCc1ccc2nc(NC(=O)OC(C)C)[nH]c2c1 ?
Response: 1.95 h

* * *

For each record, write down the corresponding IC50 at 72 h.
- assay.info: Cytotoxicity against human HFF-1 clls assessed as reduction in cell viability incubated for 72 hrs by CCK-8 assay
- Format: toxicity, cell-based
- assay.context: HFF-1 cells

Request: Could you tell me which IC50 at 72 h is on file for C=CCOC(=O)Nc1nc2ccc(CCCC)cc2[nH]1 ?
Response: > 20 µM

Request: Could you tell me which IC50 at 72 h is on file for CCCCc1ccc2nc(NC(=O)OC(C)C)[nH]c2c1 ?
Response: > 20 µM

Request: Could you tell me which IC50 at 72 h is on file for CCCCc1ccc2[nH]c(NC(=O)OC)nc2c1 ?
Response: > 20 µM

* * *

- assay.info: Acute toxicity in IG dosed Kunming mouse assessed as lethal dose after 15 days of administration
- Format: organism-based
- assay.context: in vivo, po, time 15 day
experimental.readout: LD50 at 360 h

Request: Could you tell me which LD50 at 360 h is on file for C=CCOC(=O)Nc1nc2ccc(CCCC)cc2[nH]1 ?
Response: > 1000 mg/kg

Request: Could you tell me which LD50 at 360 h is on file for CCCCc1ccc2nc(NC(=O)OC(C)C)[nH]c2c1 ?
Response: 341 mg/kg

Request: Could you tell me which LD50 at 360 h is on file for CCCCc1ccc2[nH]c(NC(=O)OC)nc2c1 ?
Response: > 1000 mg/kg

* * *

- study.system: Tubulin (Homo sapiens) (UniProt P68371+Q9H4B7+P0DPH7+P68366+Q13509+Q71U36+P04350+Q3ZCM7+P07437+P68363+Q9BQE3+Q6PEY2+Q13885+Q9BVA1+Q9BUF5)
- assay.info: Inhibition of tubulin polymerization (unknown origin) at 20 micromol/L by fluorescence based analysis
- Assay type: protein-complex assay
- assay.context: dose 20.0 µmol/L
experimental.readout: inhibition (%)
Note: unit % is implicit; provide only the numeric part.

Request: Could you tell me which inhibition is on file for CCCCc1ccc2nc(NC(=O)c3ccco3)[nH]c2c1 ?
Response: 57.7

Request: Could you tell me which inhibition is on file for CCCCOC(=O)Nc1nc2ccc(CCCC)cc2[nH]1 ?
Response: 44.1

Request: Could you tell me which inhibition is on file for CCCCc1ccc2nc(NC(=O)OCC(C)C)[nH]c2c1 ?
Response: 34.4

Request: Could you tell me which inhibition is on file for CCCCc1ccc2nc(NC(=O)OCCCl)[nH]c2c1 ?
Response: 0

Request: Could you tell me which inhibition is on file for CCCCc1ccc2nc(NC(=O)NC3CCCCC3)[nH]c2c1 ?
Response: 8.26

Request: Could you tell me which inhibition is on file for CCCCc1ccc2nc(NC(=O)OCCC)[nH]c2c1 ?
Response: 88.8

* * *

- assay.info: Cmax in rat at 100 mg/kg,IG measured upto 24 hrs by HPLC analysis
- Format: ADME, organism-based
- Design: dose 100 mg/kg, time < 24 hrs, route ig
- assay.context: in vivo, po
For each record, write down the corresponding Cmax.
Note: unit ng/mL is implicit; provide only the numeric part.

Request: Could you tell me which Cmax is on file for CCCCc1ccc2nc(NC(=O)OC(C)C)[nH]c2c1 ?
Response: 169

Request: Could you tell me which Cmax is on file for CCCCc1ccc2[nH]c(NC(=O)OC)nc2c1 ?
Response: 141

Request: Could you tell me which Cmax is on file for C=CCOC(=O)Nc1nc2ccc(CCCC)cc2[nH]1 ?
Response: 83

* * *

- study.system: Tubulin
- assay.info: Inhibition of tubulin polymerization (unknown origin) by fluorescence based analysis
experimental.readout: IC50 (µM)
Note: unit µM is implicit; provide only the numeric part.

Request: Could you tell me which IC50 is on file for CCCCc1ccc2nc(NC(=O)OC(C)CC)[nH]c2c1 (stereo unspecified) ?
Response: 1.62

Request: Could you tell me which IC50 is on file for CCCCc1ccc2nc(NC(=O)c3ccco3)[nH]c2c1 ?
Response: 16.2

Request: Could you tell me which IC50 is on file for Cc1ccc2nc(NC(=O)OC(C)C)[nH]c2c1 ?
Response: 6.27

Request: Could you tell me which IC50 is on file for CCCCc1ccc2[nH]c(NC(=O)OC)nc2c1 [PARBENDAZOLE] ?
Response: 9.55

Request: Could you tell me which IC50 is on file for CCCCc1ccc2nc(NC(=O)OC(C)C)[nH]c2c1 ?
Response: 4.04

Request: Could you tell me which IC50 is on file for CCCCc1ccc2nc(NC(=O)C3CCOCC3)[nH]c2c1 ?
Response: 4.4
